tested-target: T1, CD47 protein (Acrobiosystems, cat #CD7-HA2E9) (UniProt Q08722 19-139)
T1 construct: Bought recombinant protein coated on the ELISA plate at 100 ng/well; also called CD47 antigen; CD47 peptide
T1 sequence (Q08722 19-139 limits assumed): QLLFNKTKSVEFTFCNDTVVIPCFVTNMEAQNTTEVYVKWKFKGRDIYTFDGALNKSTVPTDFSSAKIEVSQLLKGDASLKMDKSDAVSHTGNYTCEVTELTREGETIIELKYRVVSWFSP
assay-details: ELISA, CD47 protein coated 100 ng/well, 0.8 µg antibody per well
test-readout: OD450 measurements (OD450)
Response body: numeric value in OD450, unit text excluded.

// solved cases for OD450 measurements follow
binder	endpoint-value
Hu3A5 (V2) antibody (antibody, V domains shown) VH: EVQLVQSGAEVKKPGASVKVSCKASGYTFTSYWMHWMRQAPGQGLEWIGVIDPSDSYTSYNQKFQGRVTLTVDTSTSTAYMELSSLRSEDTAVYYCARGGKRAMDYWGQGTTVTVSS VL: DVVMTQSPLSLPVTLGQPASISCRSSQSLVHSNGNTYLHWFQQRPGQSPRLLIYKVSNRFSGVPDRFSGSGSGTDFTLKISRVEAEDVGVYYCSQSTHVPFTFGGGTKLEIK	2.69
Hu3A5(V12) antibody (antibody, V domains shown) VH: EVQLVQSGSELKKPGASVKVSCKASGYTFTSYWMHWMRQAPGQGLEWIGVIDPSDSYTSYNQGFTGRFVLSVDTSVSTAYLQISSLKAEDTAVYYCARGGKRAMDYWGQGTTVTVSS VL: DVVMTQSPDSLAVSLGERATINCKSSQSLVHSNGNTYLHWYQQKPGQPPKLLIYKVSNRFSGVPDRFSGSGSGTDFTLTISSLQAEDVAVYYCSQSTHVPFTFGGGTKLEIK	2.85

What value of OD450 measurements has been reported for the following binder? Hu3A5(V10) antibody (antibody, V domains shown, also called humanized 3A5(V10) antibody; humanized Hu3A5(V10) antibody) VH: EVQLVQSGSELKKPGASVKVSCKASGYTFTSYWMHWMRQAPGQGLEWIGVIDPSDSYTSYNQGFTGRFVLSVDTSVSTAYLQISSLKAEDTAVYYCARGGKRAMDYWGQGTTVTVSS VL: DVVMTQSPLSLPVTLGQPASISCRSSQSLVHSNGNTYLHWFQQRPGQSPRLLIYKVSNRFSGVPDRFSGSGSGTDFTLKISRVEAEDVGVYYCSQSTHVPFTFGGGTKLEIK 2.81
